study target: rat NaP2b (SLC34A2) (Rattus norvegicus)
Construct: host or cells: HEK293
Sequence (Q9JJ09 1-695): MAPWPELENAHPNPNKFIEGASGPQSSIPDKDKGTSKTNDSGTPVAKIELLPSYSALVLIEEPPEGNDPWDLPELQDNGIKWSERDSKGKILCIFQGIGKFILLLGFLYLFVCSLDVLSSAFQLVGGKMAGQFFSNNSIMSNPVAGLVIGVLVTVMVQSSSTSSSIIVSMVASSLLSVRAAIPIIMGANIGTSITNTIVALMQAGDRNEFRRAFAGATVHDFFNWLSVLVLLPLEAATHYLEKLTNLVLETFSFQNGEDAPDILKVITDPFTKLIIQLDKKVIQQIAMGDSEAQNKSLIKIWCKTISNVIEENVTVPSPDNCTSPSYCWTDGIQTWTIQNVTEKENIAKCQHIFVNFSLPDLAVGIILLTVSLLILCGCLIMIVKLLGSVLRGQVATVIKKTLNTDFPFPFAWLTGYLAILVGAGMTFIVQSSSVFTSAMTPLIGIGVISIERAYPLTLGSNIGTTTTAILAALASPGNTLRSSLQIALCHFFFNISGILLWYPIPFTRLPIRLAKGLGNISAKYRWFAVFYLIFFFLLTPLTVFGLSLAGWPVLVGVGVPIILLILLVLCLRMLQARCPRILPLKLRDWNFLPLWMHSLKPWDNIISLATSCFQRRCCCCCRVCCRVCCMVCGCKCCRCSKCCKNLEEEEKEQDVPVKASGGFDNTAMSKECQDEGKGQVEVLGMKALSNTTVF
protocol details: Inhibition of NaP2b-mediated Pi (33P) uptake in transfected HEK293 cells, rat NaP2b
Format: cell-based
protocol conditions: 33P Pi uptake, 0.1 mM phosphate, value given as pIC50 range
# maps each entry to its IC50

CCN(CC)c1ccc(NC(=O)c2cccc(CCCOCCOCCOCCOCCC(=O)N3CCN(c4ccc(OCCOCCOCCOC)cc4)CC3)c2)c(-c2cc(C(=O)NCc3cccc(C(F)(F)F)c3)ccn2)c1 = 1 to 7.94 µM
O=C(NCc1cccc(C(F)(F)F)c1)c1ccnc(-c2cc(N3CCCCC3)ccc2NC(=O)c2cccc(CSc3ccc(C(=O)O)c(Br)c3)c2)c1 = 1 to 7.94 µM
O=C(O)CCSCc1cccc(C(=O)Nc2ccc(N3CCCCC3)cc2-c2cc(C(=O)NCc3cccc(C(F)(F)F)c3)cc(Cl)n2)c1 = 1 to 7.94 µM
COCCOCCOCCOCCOCCOCCOCCOCC(=O)N1CCCN(CCN(C)C(=O)c2cccc(C(=O)Nc3ccc(N4CCCCC4)cc3-c3cc(C(=O)N[C@H]4CCCc5ccccc54)ccn3)c2)CC1 = 10 to 31.6 µM

Field: next molecule
# get_value(readout= IC50, system= rat NaP2b (SLC34A2) (Rattus norvegicus)) for CCN(CC)c1ccc(NC(=O)c2cccc(CSCCOCCOCCOCCOCCC(=O)O)c2)c(-c2cc(C(=O)NCc3cccc(C(F)(F)F)c3)ccn2)c1
< 1 µM

---

Tested on: Uptake of Phosphorus from the Intestine
protocol details: In vivo co-dosing in chow (urine P out / P consumed)
protocol conditions: Rattus norvegicus, feed or water; rats, compound in chow; mean drug dose 120 mg/kg/day; read-out: Mean % inhibition Urine Pout/P consumed
# maps each entry to its inhibition in vivo at 120 mg/kg/day

// solved cases for inhibition in vivo at 120 mg/kg/day follow
O=C(O)CCOCCOCCOCCNC(=O)c1cccc2c1ccn2Cc1cccc(C(=O)Nc2ccc(N3CCCCC3)cc2-c2cc(C(=O)N[C@H]3CCCc4ccccc43)ccn2)c1 [Example 181] = ≤ 10%
CCN(CC)c1ccc(NC(=O)c2cccc(CSCCOCCOCCOCCOCCOCCOCCOCCOC)c2)c(-c2cc(C(=O)NCc3cccc(C(F)(F)F)c3)ccn2)c1 [Example 265] = ≤ 10%
CCN(CC)c1ccc(NC(=O)c2cccc(CSCCOCCOCCOCCOCCOCCOCCOCCOCCC(=O)O)c2)c(-c2cc(C(=O)N[C@H]3CCCc4ccccc43)ccn2)c1 [Example 161] = ≤ 10%

Can you share its inhibition in vivo at 120 mg/kg/day? I mean this molecule: CCN(CC)c1ccc(NC(=O)c2cccc(CSCCOCCOCCOCCOCCOCCOCCOCCOCCC(=O)O)c2)c(-c2cc(C(=O)NCc3cccc(C(F)(F)F)c3)ccn2)c1 [Example 166]
10 to 30%

---

protocol details: Determination of compound Cmax and AUC after oral gavage (plasma LC-MS/MS)
Assay type: in vivo, Sprague-Dawley rats
protocol conditions: Sprague-Dawley, rat, plasma, po, Structure (I) examples, Table 15, actual oral dose 15-40 mg/kg, plasma 0.5-4 h
outcome measure: AUC

Can you share its AUC? I mean this compound: CCN(CC)c1ccc(NC(=O)c2cccc(CCCOCCOCCOCCOCCOCCOCCOCCOCCOCCC(=O)O)c2)c(-c2cc(C(=O)NCc3cccc(C(F)(F)F)c3)ccn2)c1
< 30 ng·h/mL

Param item: CCN(CC)c1ccc(NC(=O)c2cccc(CSCCOCCOCCOCCOCCOCCOCCOCCOCCC(=O)O)c2)c(-c2cc(C(=O)NCc3cccc(C(F)(F)F)c3)ccn2)c1
< 50 ng·h/mL

Param item: O=C(O)CCOCCOCCOCCOCCCc1cccc(C(=O)Nc2ccc(Cl)cc2-c2cc(C(=O)N[C@H]3CCCc4ccccc43)ccn2)c1
< 10 ng·h/mL

Param item: CCN(CC)c1ccc(NC(=O)c2cccc(CCCOCCOCCOCCOCCC(=O)N3CCN(C(=O)c4cccc(CCCOCCOCCOCCOCCOCCOCCOCCOCCOC)c4)CC3)c2)c(-c2cc(C(=O)NCc3cccc(C(F)(F)F)c3)ccn2)c1
< 50 ng·h/mL

---

# maps each entry to its IC50
study target: rat NaP2b (SLC34A2) (Rattus norvegicus, UniProt Q9JJ09)
Construct: host or cells: HEK293
protocol details: Inhibition of NaP2b-mediated Pi (33P) uptake in transfected HEK293 cells, rat NaP2b
Format: cell-based
protocol conditions: 33P Pi uptake, 0.1 mM phosphate, value given as pIC50 range

// solved cases for IC50 follow
CCCN(CCC)c1ccc(NC(=O)c2cccc(C(=O)N(C)CCN3CCOCC3)c2)c(-c2cc(C(=O)NCc3cccc(C(F)(F)F)c3)ccn2)c1 = 1 to 7.94 µM
COCCOCCOCCOCCOCCOCCOCCN(C)C(=O)[C@H]1CCCN(C(=O)c2cccc(C(=O)Nc3ccc(N4CCCCC4)cc3-c3cc(C(=O)N[C@H]4CCCc5ccccc54)ccn3)c2)C1 = 1 to 7.94 µM

Field: next compound
Can you share its IC50? I mean this compound: CCN(CC)c1ccc(NC(=O)c2cccc(C(=O)N(C)CCN(CCOC)CCOCCOCCOCCC(=O)NC(C)(C)C)c2)c(-c2cc(C(=O)NCc3cccc(C(F)(F)F)c3)ccn2)c1
1 to 7.94 µM

---

study target: rat NaP2b (SLC34A2) (Rattus norvegicus)
Construct: host or cells: HEK293
protocol details: Inhibition of NaP2b-mediated Pi (33P) uptake in transfected HEK293 cells, rat NaP2b
Type: cell-based
protocol conditions: 33P Pi uptake, 0.1 mM phosphate, value given as pIC50 range
outcome measure: IC50

// solved cases for IC50 follow
O=C(O)CCSCc1cccc(C(=O)Nc2ccc(N3CCCCC3)cc2-c2cc(C(=O)NCc3cccc(-c4ccccc4)c3)ccn2)c1 = 1 to 7.94 µM
O=C(O)CCSCc1cccc(C(=O)Nc2ccc(N3CCCCC3)cc2-c2cc(C(=O)Nc3cccc(C(F)(F)F)c3)ccn2)c1 = 1 to 7.94 µM
O=C(O)CCSCc1cccc(C(=O)Nc2ccc(N3CCCCC3)cc2-c2cc(C(=O)NCc3ccc(OC(F)(F)F)c(F)c3)ccn2)c1 = 1 to 7.94 µM

# get_value(readout= IC50, system= rat NaP2b (SLC34A2) (Rattus norvegicus)) for CCCCN(C)c1ccc(NC(=O)c2cccc(C(=O)N(C)CCN3CCOCC3)c2)c(-c2cc(C(=O)NCc3cccc(C(F)(F)F)c3)ccn2)c1
10 to 31.6 µM

Param item: CC(=O)N[C@H]1CCN(Cc2cccc(C(=O)Nc3ccc(N4CCCCC4)cc3-c3cc(C(=O)NCc4cccc(C(F)(F)F)c4)ccn3)n2)C1
10 to 31.6 µM

Param item: COc1ccc(CNC(=O)c2ccnc(-c3cc(N4CCCCC4)ccc3NC(=O)c3cccc(CSCCC(=O)O)c3)c2)cc1C(F)(F)F
10 to 31.6 µM

Param item: C[C@@H]1CN(c2ccc(NC(=O)c3cccc(C(=O)N(C)CCN4CCOCC4)c3)c(-c3cc(C(=O)NCc4cccc(C(F)(F)F)c4)ccn3)c2)C[C@H](C)O1
10 to 31.6 µM

Param item: CCN(CC)c1ccc(NC(=O)c2cccc(CSCCOCCOCCOCCOCCC(=O)NCCOCCOCCOCCOCCOCCOCCOCCOC)c2)c(-c2cc(C(=O)N[C@H]3CCCc4ccccc43)ccn2)c1
1 to 7.94 µM

Param item: O=C(O)CCSCc1cccc(C(=O)Nc2ccc(N3CCCCC3)cc2-c2cc(C(=O)NCc3ccc4c(c3)CCO4)ccn2)c1
1 to 7.94 µM

meta.source: patent US20140023611A1
